Give measured pEC50 for each item. Keep answers brief.
Biological target: human GPR40 (Homo sapiens, UniProt O14842)
Sequence (O14842 whole entry): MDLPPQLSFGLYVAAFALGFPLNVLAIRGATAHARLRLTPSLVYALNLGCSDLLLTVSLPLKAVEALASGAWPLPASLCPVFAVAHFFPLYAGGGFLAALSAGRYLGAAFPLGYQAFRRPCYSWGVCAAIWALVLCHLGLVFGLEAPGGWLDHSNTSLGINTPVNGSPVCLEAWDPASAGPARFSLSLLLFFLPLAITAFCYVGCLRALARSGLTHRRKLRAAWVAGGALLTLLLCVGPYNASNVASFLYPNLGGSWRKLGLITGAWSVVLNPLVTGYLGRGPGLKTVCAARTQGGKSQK
Experiment: Inositol phosphate accumulation assay in CHO-K1 cells expressing human GPR40
Details: CHO-K1 human GPR40, IP1 HTRF, 90 min
pEC50: −log10 of the molar value.

// known answers, use as guide
COMPOUND	MEASUREMENT TARGET	pEC50
COc1ccc(CCCC(C)(C)C)c(N2CCC(COc3cccc([C@@H](C)CP(C)(=O)O)c3)CC2)c1 [Compound B11]	human GPR40 (Homo sapiens, UniProt O14842)	6.60 to 7.30
COc1ccc(F)c([C@H]2CC[C@H](COc3cc([C@@H](CP(C)(=O)O)C4CC4)ccn3)CC2)c1 [Compound B5]	human GPR40 (Homo sapiens, UniProt O14842)	≥ 7.30

Give pEC50 for each of the items listed below.
1. COc1ccc(F)c([C@H]2CC[C@H](COc3cccc([C@@H](C[P@@](C)(=O)O)C4CC4)c3)CC2)c1 (single isomer, unassigned) [Compound B4]
2. COc1ccc(CCCC(C)(C)C)c(N2CCC(COc3cccc([C@H](C)CP(C)(=O)O)c3)CC2)c1 [Compound B10]

6.60 to 7.30
≥ 7.30

* * *

Give measured pEC50 for each item. Keep answers brief.
Molecular target: human GPR119 (hGPR119) (Homo sapiens)
Sequence (Q8TDV5 1-335): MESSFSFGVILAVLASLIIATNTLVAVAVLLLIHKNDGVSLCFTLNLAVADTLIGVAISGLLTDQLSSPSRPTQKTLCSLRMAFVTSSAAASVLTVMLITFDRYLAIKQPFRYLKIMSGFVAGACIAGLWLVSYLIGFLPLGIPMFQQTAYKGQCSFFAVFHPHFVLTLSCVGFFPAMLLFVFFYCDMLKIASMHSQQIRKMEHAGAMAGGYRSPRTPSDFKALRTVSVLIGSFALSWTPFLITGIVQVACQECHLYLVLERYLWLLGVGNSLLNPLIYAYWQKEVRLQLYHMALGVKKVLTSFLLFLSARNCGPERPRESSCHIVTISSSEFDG
Experiment: cAMP accumulation assay in CHO-K1 cells stably expressing hGPR119
Conditions: cAMP HTRF, 60 minutes
Procedure: CHO-K1 cells stably expressing human GPR119 (hGPR119) were prepared by transfection of a GPR119-carrying plasmid using Lipofectamine 2000 (following manufacturer instructions). […] Assay-ready frozen (ARF) cells were prepared and used throughout the study. […] RT-FRET was measured using a ClarioSTAR plate reader, calculating the ratio between emissions at 665 nm and 620 nm (HTRF ratio). […] EC50 and Max activity values were determined using a standard 4-parameter fit.
pEC50: −log10 of the molar value.

COMPOUND	pEC50
CCCc1cnc(N2CCC(CCCOc3cc(F)c(CC(=O)N4CC(CNC[C@H](O)[C@@H](O)[C@H](O)[C@H](O)CO)C4)c(F)c3)CC2)nc1 [Compound A48]	≥ 7.00
O=C(NCCCCCS(=O)(=O)O)C1CN(C(=O)Cc2ccc(OCCCC3CCN(c4ncc(Cl)cn4)CC3)cc2F)C1 [Compound A66]	6.00 to 7.00

API: the following record is the query input.
Fill in the recorded pEC50 for this compound, with human GPR119 (hGPR119) (Homo sapiens) as test system: COCc1cnc(N2CCC(CCCOc3ccc(CC(=O)N4CC(CNCC[C@@H](O)C[C@@H](O)CC(=O)O)C4)c(F)c3)CC2)nc1 [Compound A52] 6.00 to 7.00
